The measurements presented in this section are drawn from patent US8815909B2.

Recorded measurements of EC50, one per entry
Biological target: human Y4 receptor (Homo sapiens)
Construct: expressed in transfected cells
Sequence (P50391 whole entry): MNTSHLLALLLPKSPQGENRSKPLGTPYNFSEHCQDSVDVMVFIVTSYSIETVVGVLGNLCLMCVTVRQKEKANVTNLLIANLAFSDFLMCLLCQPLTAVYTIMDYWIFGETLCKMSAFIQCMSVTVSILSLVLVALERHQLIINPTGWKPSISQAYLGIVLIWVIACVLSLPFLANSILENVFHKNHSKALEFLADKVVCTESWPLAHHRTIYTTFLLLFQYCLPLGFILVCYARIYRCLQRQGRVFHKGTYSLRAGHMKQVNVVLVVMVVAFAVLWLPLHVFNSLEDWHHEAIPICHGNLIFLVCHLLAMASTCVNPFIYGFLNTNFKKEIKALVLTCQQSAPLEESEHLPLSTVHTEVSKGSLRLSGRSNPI
Experiment: NPY4 cAMP HTRF Agonist Assay (inhibitory cAMP assay, Gi activation by Y4 agonism)
Assay type: cell-based
Settings: human Y4 stable CHO clonal cells, forskolin + IBMX; read-out: NPY4 cAMP HTRF Agonist Assay EC50
Structures can show the parent of a compound that is named as a salt.
Expressed in µM, but write only the number.

Illustrative cases are given below, each with its answer.
{"MOLECULE": "NC(=O)c1cccc(-c2cnc(N[C@@H]3CCCC[C@H]3N[C@H]3CCCN(c4ccc(C(F)(F)F)cc4)C3)o2)c1 [Example 104]", "EC50 / µM": 0.0002}
{"MOLECULE": "CC(C)(C)C(=O)OCc1ccnc(N[C@@H]2CCCC[C@H]2N[C@H]2CCCN(c3ccc(C#N)cc3)C2)c1 [Example 111]", "EC50 / µM": 0.562}
{"MOLECULE": "FC(F)(F)c1ccn(-c2ccc(N3CCC[C@H](N[C@@H]4CCCC[C@H]4Nc4nccc(-c5ccccc5)n4)C3)cc2)n1 [Example 69, bis-trifluoroacetate]", "EC50 / µM": 0.384}
{"MOLECULE": "O=[N+]([O-])c1ccc(N2C[C@@H]3C[C@H](N[C@@H]4CCCC[C@H]4Nc4ncc(-c5ccc(O)cc5)o4)[C@H]2C3)cc1 [Example 16]", "EC50 / µM": 0.006}
{"MOLECULE": "O=[N+]([O-])c1ccc(N2CCC[C@H](N[C@@H]3CCCC[C@H]3Nc3ncc(-c4ccc(OC(F)(F)F)c(F)c4)o3)C2)cc1 [Example 8]", "EC50 / µM": 0.016}

// query Query for human Y4 receptor (Homo sapiens): what EC50 does the record show for O=[N+]([O-])c1ccc(N2CCC[C@H](N[C@@H]3CCCC[C@H]3Nc3nnc(-c4ccccc4)o3)C2)cc1 [Example 27] ?
// result 0.06

// query And the next one, COC(=O)Nc1cccc(-c2cnc(N[C@@H]3CCCC[C@H]3N[C@H]3CCCN(c4cnc(C(F)(F)F)nc4)C3)o2)c1 [Example 103] ?
// result 0.003

// query And the next one, O=[N+]([O-])c1ccc(N2CC3CCC2[C@@H](N[C@@H]2CCCC[C@H]2Nc2ncc(-c4ccc(OC(F)(F)F)cc4)o2)C3)cc1 (some centres unmarked) [Example 17] ?
// result 0.911

// query And the next one, N#Cc1ccc(N2CCC[C@H](N[C@@H]3CCCC[C@H]3Nc3ncc(-c4ccc(OC(F)(F)F)cc4)o3)C2)cc1Cl [Example 38, bis-trifluoroacetate] ?
// result 0.008

// query And the next one, O=[N+]([O-])c1ccc(N2CCC[C@H](N[C@@H]3CCCC[C@H]3Nc3nccc(-c4ccc(OC(F)(F)F)cc4)n3)C2)cc1 [Example 28] ?
// result 0.217

// query And the next one, FC(F)(F)Oc1ccc(-c2cnc(N[C@@H]3CCCC[C@H]3N[C@H]3CCCN(c4ccc(-n5cccn5)cc4)C3)o2)cc1 [Example 63, trifluoroacetate] ?
// result 0.174

// query And the next one, C[C@]1(N[C@@H]2CCCC[C@H]2Nc2ncc(-c3cccc(C(N)=O)c3)o2)CCCN(c2ccc(C(F)(F)F)cc2)C1 [Example 106] ?
// result 0.0003

// query And the next one, N#Cc1ccc(N2CCC[C@H](N[C@@H]3CCCC[C@H]3Nc3cc(-c4ccc(O)cc4)ccn3)C2)cc1 [Example 45, tris-trifluoroacetate] ?
// result 0.019

// query And the next one, O=C(NC1CC1)c1cccc(-c2cnc(N[C@@H]3CCCC[C@H]3N[C@H]3CCCN(c4ccc(C(F)(F)F)nc4)C3)o2)c1 [Example 99] ?
// result 0.0008
